Test system: PPARg:RXRa 30nM:10nM, anti-RXR (NR concentration 30 nM, RXRa partner concentration 10 nM)
assay.info: PBM binding z-score (relative to random genomic background probes); higher = stronger binding; sequences stand for … in GC…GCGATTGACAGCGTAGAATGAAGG
outcome.measure: PBM binding z-score
Give bare numbers.

Here is how some sequences turned out for PBM binding z-score.
[[record]]
sequence_input = "ACTAGTTGGTCAGCTGAGGTCGCACACAATTCGG"
result_number = -0.204

[[record]]
sequence_input = "GCAGACAGGTGAAGCGCAGGTAACTCAGGGTGGC"
result_number = -1.07

[[record]]
sequence_input = "ACTTACGGGTCAACGATGTTATAGCACGCGTATA"
result_number = 2.07

[[record]]
sequence_input = "CGTCCAAGGTCAAGGTCAGGGAAAGAGACTCGAA"
result_number = 3.93


Value sought for every listed sequence: PBM binding z-score.
1. ATATGTAGGTTACATCCGGGTCATTCCGGCTATG
2. CAAACTAGGTCATAGGTCAAAGTCGAGCCAACCA
3. AGTCAAAGTTCACTAGGTATCGTAAGATTCAGCT
4. TCATATAGGTCATACAGGTGAAAGTCGGCATCTA

OUT:
1. 2.7
2. 11.6
3. 2.96
4. 5.26
